Where these numbers come from: paper PMC6687188

# target.entity: recombinant CpLDH protein (Cryptosporidium parvum, UniProt Q9GT92, F198L/K295E/R251K)
So basically: MEAN CpLDH INHIBITION (%) at -20% or higher? That is criterion met. Lower than -20%? That is criterion not met.

Recorded results for 5 molecules are shown here.
| molecule | label |
| --- | --- |
| COc1ccc(C2c3cc4c(c(OC)c3CC3OCC(=O)C32)OCO4)cc1OC (stereo not shown) [NSC126727] | criterion met |
| O=c1ccc2ccc(CBr)cc2o1 [NSC99027] | criterion not met |
| CC[C@@]1(O)C(=O)OCc2c1cc1n(c2=O)Cc2cc3c(N)cccc3nc2-1 [NSC629971] | criterion met |
| N[C@H](C(=O)O)[C@H]1ON=C(Cl)[C@H]1O [NSC176324] | criterion met |
| N[C@@H](CSC(c1ccccc1)(c1ccccc1)c1ccccc1)C(=O)O [NSC83265] | criterion met |

Q: Is it the case that Fc1cccc(Cl)c1C1SCc2nc3ccccc3n21 (stereo not shown) [NSC625483] has MEAN CpLDH INHIBITION (%) reaching or exceeding -20%?
A: criterion met

Q: Is MEAN CpLDH INHIBITION (%) for CC1CCC2(OC1)OC1CC3C4CC=C5CC(OC6OC(CO)C(OC7OC(C)C(OC8OC(C)C(O)C(O)C8O)C(O)C7O)C(O)C6OC6OC(C)C(O)C(O)C6O)CCC5(C)C4CCC3(C)C1C2C (stereo not shown) [NSC306864] at or above -20%?
A: criterion met

---

Below are compounds with their MEAN CpLDH INHIBITION (%) as measured on recombinant CpLDH protein (Cryptosporidium parvum, UniProt Q9GT92, F198L/K295E/R251K).
One number for each entry, in %.

Look over these answered cases.
| smiles.code | MEAN CpLDH INHIBITION (%) |
| --- | --- |
| CC(=O)OCc1cc(=O)n(C)c2c3c4c(cc12)c(C)cc(=O)n4CO3 | -1.50 |
| [O-][Cl+3]([O-])([O-])[O-].c1ccc(-c2csc3c4ccccc4c4ccccc4[n+]23)cc1 | -42.18 |
| O=[N+]([O-])c1ccc(N=Nc2c(O)[nH]c3ccccc23)c([N+](=O)[O-])c1 | -33.40 |
| O=S1(=O)CCN(c2ccccc2CC(c2c[nH]c3ccccc23)c2c[nH]c3ccccc23)CC1 | -34.03 |
| C[C@@H]1O[C@@H](O[C@@H]2C=C3CC[C@@H]4[C@H](CC[C@]5(C)[C@@H](c6ccc(=O)oc6)CC[C@]45O)[C@@]3(C)CC2)[C@H](O)[C@H](O)[C@H]1O[C@@H]1O[C@H](CO)[C@@H](O)[C@H](O)[C@H]1O | -34.67 |

# return MEAN CpLDH INHIBITION (%) for each item in the list
1. O=c1oc2cc(O)ccc2c2oc3cc(O)ccc3c12
2. CCOC(=O)Cc1cc(=O)oc2cc(O)ccc12

A:
1. 3.48
2. -25.51

---

The compounds below have reported MEAN CpLDH INHIBITION (%) for recombinant CpLDH protein (Cryptosporidium parvum, UniProt Q9GT92, F198L/K295E/R251K).
Give bare numbers, in %.

Hey, quick one: what's MEAN CpLDH INHIBITION (%) for each of these?
1. COC(=O)C1(C)CCCC2(C)c3cc(OC)ccc3C(=O)C(Br)C12 (stereo not shown) [NSC169600]
2. Cc1c2ccnc(C(N)=O)c2c(C)c2c1[nH]c1ccccc12.Cl [NSC335142]
3. CCCCCc1cc(/C=C2/N=C(c3ccc[nH]3)C=C2OC)[nH]c1C [NSC47147]
4. Cc1[nH]c(=O)[nH]c(=O)c1/C=C/C(=O)NC(CO)CC(C)C (stereo not shown) [NSC224117]
5. CCP(CC)CC.[Au+].[Cl-] [NSC313981]
6. O=C1CC[C@H](NC(=O)Cc2ccccc2)C(=O)N1 [NSC620261]
7. O=C1C=C(N2CCNCC2)C(=O)c2c(O)ccc(O)c21 [NSC658144]

A:
[-28.27, -27.72, -37.67, -0.81, -27.27, -132.95, -3.51]

List the reported MEAN CpLDH INHIBITION (%) of each compound below.
1. COC1C(C)OC(OC2CC(C)(O)Cc3cc4c(c(O)c32)C(=O)c2c(O)cc3c(c2C4=O)OC2OC3(C)C(O)C(N(C)C)C2O)C(OC)C1(C)OC (stereo not shown) [NSC265450]
2. CC(C)CCCC(=O)CCCCCCC(=O)CCN(O)C(=O)C(N)CO.O=S(=O)(O)O (stereo not shown) [NSC106997]
3. O=C(ON=C1c2ccccc2C(Br)C(Br)c2ccccc21)c1ccccc1 (stereo not shown) [NSC670140]
4. C[C@]12CC[C@@H]3c4ccccc4CC[C@H]3[C@@H]1CC[C@@H]2O [NSC22194]
5. C=C(C#N)C(=O)OCC(CC)CC.C=C(C#N)C(=O)OCC(CC)CC.CS(C)=O.CS(C)=O.Nc1c(N=Nc2ccc(-c3ccc(N=Nc4cc(S(=O)(=O)[O-])c5ccccc5c4N)cc3)cc2)cc(S(=O)(=O)[O-])c2ccccc12.[Pt+2] [NSC615593]
6. COCCOC1=C(Cl)C(=O)c2c(O)ccc(O)c2C1=O [NSC659997]

A:
1. -83.48
2. -28.98
3. -63.78
4. -50.61
5. -2.09
6. -9.35

Look up MEAN CpLDH INHIBITION (%) for the entries below, preserving their order.
1. O=C([O-])c1cc(I)cc(I)c1[OH2+].O=C([O-])c1cc(I)cc(I)c1[OH2+].[Mn+2] [NSC619907]
2. COc1ccc2cccc(C(=N)c3ccc(C)c4c3CCC4)c2c1 [NSC625590]
3. Oc1cc(-n2cccn2)c(O)cc1-n1cccn1 [NSC645987]
4. COc1ccc(C2C(C)C(=O)C(C)C(c3ccc(OC)cc3)N2N=O)cc1 (stereo not shown) [NSC626734]
5. N[C@@H](Cc1ccc2oc3cc(=O)c4ccccc4c-3nc2c1)C(=O)O [NSC672425]
6. Cc1c(Cl)ccc2c1NC(=O)C2(O)C(C(=O)c1ccccc1)c1ccccc1 (stereo not shown) [NSC635321]

A:
-115.80
-11.59
-40.48
-0.09
-0.60
-39.51

Hi team, please reply with MEAN CpLDH INHIBITION (%) for each item in this list.
1. C[C@]12CC[C@H](O)C[C@H]1CC[C@@H]1[C@@H]2CC[C@]2(C)[C@@H](C3=CC(=O)OC3)CC[C@]12O [NSC407806]
2. Cc1cc(N(C)C)ccc1N=Nc1ccc2ncccc2c1 [NSC680516]
3. O=C1C(Br)=C(Br)C(=O)c2ccccc21 [NSC618332]
4. Nc1nc2c(ncn2[C@@H]2O[C@H](CO)[C@@H](O)[C@H]2O)c(=O)[nH]1 [NSC19994]
5. CC(=O)NCCCCCCNC(C)=O [NSC95580]

A:
1. -16.59
2. -19.55
3. -7.70
4. -14.24
5. -114.38
